biological target: DYRK1B (human); experiment: KINOMEscan competition binding; conditions: compound 10.0 µM
Reported kinase still bound, per cent of control by item:
Your answer should be a number followed by the unit of measure.

# example entries with known answers
Query block: Indicate the recorded kinase still bound, per cent of control value for this compound: C[C@@H](Oc1cc(-n2cnc3ccc(CN4CCN(C)CC4)cc32)sc1C(N)=O)c1ccccc1C(F)(F)F
Result block: 89%

Query block: Tell me its kinase still bound, per cent of control given CCN1CCN(Cc2ccc(Nc3ncc4c(n3)N(C)c3ccccc3C(=O)N4C)cc2C(F)(F)F)CC1 as the entry.
Result block: 68%

Query block: Indicate the recorded kinase still bound, per cent of control value for this compound: N#Cc1c(NC(=O)c2cccc3ccccc23)sc2c1CCCC2
Result block: 89%

Query block: State, in one line, measured kinase still bound, per cent of control of Cc1ccc2nc(NCCN)c3ncc(C)n3c2c1
Result block: 85%

Query block: For the compound CC[C@@H]1C(=O)N(C)c2cnc(Nc3ccc(C(=O)NC4CCN(C)CC4)cc3OC)nc2N1C1CCCC1 , give its reported kinase still bound, per cent of control.
Result block: 100%

Query block: Quickly give me recorded kinase still bound, per cent of control for C=CC(=O)Nc1cc(NC(=O)c2ccc(C)c(NC(=O)c3ccno3)c2)cc(C(F)(F)F)c1
Result block: 95%

Query block: Using known records, supply kinase still bound, per cent of control for CN(C)C/C=C/C(=O)Nc1cccc(Nc2ncc3c(n2)N(C)c2ccccc2C(=O)N3C)c1
Result block: 100%

Query block: Quote kinase still bound, per cent of control reported for O=C(NOC[C@H](O)CO)c1ccc(F)c(F)c1Nc1ccc(I)cc1F please.
Result block: 98%

Query block: Give kinase still bound, per cent of control for Cn1c(=O)n(-c2ccc(C(C)(C)C#N)cc2)c2c3cc(-c4cnc5ccccc5c4)ccc3ncc21
Result block: 100%

Shifting focus to the compound that follows.
Query block: Write down kinase still bound, per cent of control measured for item COc1cc(C(=O)NC2CCN(C)CC2)ccc1Nc1ncc2c(n1)N(C1CCCC1)CCC(=O)N2C(C)C
Result block: 100%

* * *

Listed next: entries and their corresponding kinase still bound, per cent of control.
target: MAP3K2 (human); assay: KINOMEscan competition binding; conditions: compound 10.0 µM
API: value field is a number in %; no unit string.

Query block: # return recorded kinase still bound, per cent of control for input CCC(=O)N1CCN(c2ccc(-n3c(=O)ccc4cnc5ccc(-c6cnc7ccccc7c6)cc5c43)cc2C(F)(F)F)CC1
Result block: 62

Query block: Consider the molecule Cc1cc([C@@H](C)Nc2ccccc2C(=O)O)c2nc(N3CCOCC3)cc(=O)n2c1 and give its recorded kinase still bound, per cent of control.
Result block: 100

Query block: Tell me kinase still bound, per cent of control reported for N#Cc1c(NC(=O)c2cccc3ccccc23)sc2c1CCCC2
Result block: 100

Query block: Supply reported kinase still bound, per cent of control belonging to this molecule: Cc1ccc2nc(NCCN)c3ncc(C)n3c2c1
Result block: 100

Query block: Dear colleague, please send me the reported kinase still bound, per cent of control for O=C(NC1CC1)c1cccc(-c2ccc3c(NC(=O)C4CC4)n[nH]c3c2)c1 when you can.
Result block: 63

Query block: Indicate its recorded kinase still bound, per cent of control; the molecule in question is C=CC(=O)Nc1cc(NC(=O)c2ccc(C)c(NC(=O)c3ccno3)c2)cc(C(F)(F)F)c1
Result block: 100

Query block: Identify the reported kinase still bound, per cent of control for the following entry. O=C(NOC[C@H](O)CO)c1ccc(F)c(F)c1Nc1ccc(I)cc1F
Result block: 100

Query block: Indicate the recorded kinase still bound, per cent of control value for this molecule: Nc1ccc(-c2ccc3ncc4ccc(=O)n(-c5cccc(C(F)(F)F)c5)c4c3c2)cn1
Result block: 78

Now let's try a different one.
Query block: Answer with the recorded kinase still bound, per cent of control of O=C1Nc2ccc(I)cc2/C1=C/c1cc(Br)c(O)c(Br)c1 only.
Result block: 100
